Where these numbers come from: patent US20040248202A1

Below, each entry is listed alongside its reported Activation (x100%) Over Basal Exchange.
- subject-of-test: holotransducin
- protocol-text: cell-based or functional assay
measurement-label: Activation (x100%) Over Basal Exchange

binder | result
BR-Rhodopsin loop 3 chimera, Rhodopsin Insert G224 to M253 (3E) (other) QAQITGRPEWIWLALGTALMGLGTLYFLVKGMGVSDPDAKKFYAITTLVPAIAFTMYLSMLLGYGLTMVPFGGEQNPIYWARYADWLFTTPLLLLDLALLVDADQGTILALVGADGIMIGTGLVGALTKVYSYRFVWWAISTAAMLYILYVLFFGFTGQLVFTVKEAAAQQQESATTQKAEKEVTRMVASTFKVLRNVTVVLWSAYPVVWLIGSEGAGIVPLNIETLLFMVLDVSAKVGFGLILLRSRAIFGEAEAPEPSAGDGAAATSD | 1.46 x100%
BR-Rhodopsin loop 3 chimera, Rhodopsin Insert Y223 to T251 (3B) (other) QAQITGRPEWIWLALGTALMGLGTLYFLVKGMGVSDPDAKKFYAITTLVPAIAFTMYLSMLLGYGLTMVPFGGEQNPIYWARYADWLFTTPLLLLDLALLVDADQGTILALVGADGIMIGTGLVGALTKVYSYRFVWWAISTAAMLYILYVLFFGFTYGQLVFTVKEAAAQQQESATTQKAEKEVTVASTFKVLRNVTVVLWSAYPVVWLIGSEGAGIVPLNIETLLFMVLDVSAKVGFGLILLRSRAIFGEAEAPEPSAGDGAAATSD | 1.17 x100%
BR-Rhodopsin loop 3 chimera, Rhodopsin Insert Q225 to T251 (3D) (other) QAQITGRPEWIWLALGTALMGLGTLYFLVKGMGVSDPDAKKFYAITTLVPAIAFTMYLSMLLGYGLTMVPFGGEQNPIYWARYADWLFTTPLLLLDLALLVDADQGTILALVGADGIMIGTGLVGALTKVYSYRFVWWAISTAAMLYILYVLFFGFTQLVFTVKEAAAQQQESATTQKAEKEVTVASTFKVLRNVTVVLWSAYPVVWLIGSEGAGIVPLNIETLLFMVLDVSAKVGFGLILLRSRAIFGEAEAPEPSAGDGAAATSD | 1 x100%
BR-Rhodopsin loop 3 chimera, Rhodopsin Insert Y223 to M253 (3C) (other) QAQITGRPEWIWLALGTALMGLGTLYFLVKGMGVSDPDAKKFYAITTLVPAIAFTMYLSMLLGYGLTMVPFGGEQNPIYWARYADWLFTTPLLLLDLALLVDADQGTILALVGADGIMIGTGLVGALTKVYSYRFVWWAISTAAMLYILYVLFFGFTYGQLVFTVKEAAAQQQESATTQKAEKEVTRMVASTFKVLRNVTVVLWSAYPVVWLIGSEGAGIVPLNIETLLFMVLDVSAKVGFGLILLRSRAIFGEAEAPEPSAGDGAAATSD | 1.44 x100%
